# target.system: CPOX Coproporphyrinogen-III oxidase, mitochondrial (Homo sapiens, UniProt P36551)
# Construct: isoTOP-ABPP experiments performed in cell lysates (in vitro); endogenous in cells; host or cells: soluble proteome of human cancer cell lines (MDA-MB-231; Ramos and Jurkat also prepared)
# Sequence (P36551 111-454): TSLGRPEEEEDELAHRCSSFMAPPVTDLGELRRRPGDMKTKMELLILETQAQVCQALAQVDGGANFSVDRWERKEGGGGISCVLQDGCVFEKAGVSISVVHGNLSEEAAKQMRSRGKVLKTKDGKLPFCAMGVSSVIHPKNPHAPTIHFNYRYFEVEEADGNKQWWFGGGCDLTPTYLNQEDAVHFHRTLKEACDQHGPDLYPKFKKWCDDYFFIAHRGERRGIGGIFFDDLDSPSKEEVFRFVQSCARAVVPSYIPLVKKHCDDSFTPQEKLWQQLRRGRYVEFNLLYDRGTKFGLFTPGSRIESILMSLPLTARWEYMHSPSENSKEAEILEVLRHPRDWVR
# test.description: competitive isoTOP-ABPP
# Type: binding
# protocol.conditions: P36551_K404; 50 uM, 231 sol, in vitro
result.type: R value (DMSO/fragment) for probe 1 labeling

Below, each entry is followed by its recorded R value (DMSO/fragment) for probe 1 labeling result.
>>> print(df.to_string())
                                   compound  endpoint_value
0  Cn1cc(CC(=O)Oc2c(F)c(F)c(F)c(F)c2F)c2ccccc21 [fragment 22]             1.1
1  O=C(Oc1c(F)c(F)c(F)c(F)c1F)c1cc(C(F)(F)F)cc(C(F)(F)F)c1 [fragment 21]             1.0
2  O=C(Oc1c(F)c(F)c(F)c(F)c1F)C(c1ccccc1)c1ccccc1 [fragment 20, Pentafluorophenyl 2,2-diphenylacetate]             1.1

A. COc1cc(CCC(=O)Oc2c(F)c(F)c(F)c(F)c2F)cc(OC)c1OC [fragment 23]
B. O=C(CCc1cn(-c2ccccc2)nc1-c1ccccc1)Oc1c(F)c(F)c(F)c(F)c1F [fragment 19]
Kindly identify the item with the lower R value (DMSO/fragment) for probe 1 labeling figure among these two: A and B Write the label of whichever entry you select.
A
(A: 1.3, B: 10.8)

Source of measurements: patent US20210255193A1
